Test: qHTS assay for identifying genotoxic compounds that show differential cytotoxicity against isogenic chicken DT40 cell lines with known DNA damage response pathways - wild type cell line (AID 743012); further: nearly all actives have a fitted effect of over 60% in size
Details: DT40 wild type chicken cells viability, CellTiter-Glo, 40 h; series mostly up to 68.4 µM
Records with an inconclusive call do not appear. The source made the active and inactive calls. The call rests on the fitted dose curve; in most records, active means well fitted cell-killing curve with a large enough effect in the repeat runs; inconclusive means weak or mixed curves, or effect the other way; inactive means no such curve, though single readings can be large or run the other way.
Outcomes: active, inactive

molecule: Cc1cc(C)cc(OCC2CNC(=O)O2)c1 (configuration not stated)
groupLabel: inactive
//
molecule: CCC(C)(C)C1CCC(OC)CC1 (configuration not stated)
groupLabel: inactive
//
molecule: N[C@@H](CS)C(=O)O
groupLabel: inactive
//
molecule: CCN1CCN(c2cc3c(cc2F)c(=O)c(C(=O)O)cn3C2CC2)CC1
groupLabel: inactive
//
molecule: C1C2OC2C2C1C1CC2C2OC12 (configuration not stated)
groupLabel: inactive
//
molecule: COC(=O)C1=C(C)NC(C)=C(C(=O)OCC(C)=O)C1c1ccccc1[N+](=O)[O-] (configuration not stated)
groupLabel: active
//
molecule: Nc1cc(C(Cl)=C(Cl)Cl)c(S(N)(=O)=O)cc1S(N)(=O)=O
groupLabel: inactive
